biological target: UniProt:P22303
pKi: −log10 of the molar value.
Reported Property: pKi

| Smiles Str | System | Measured Number |
| --- | --- | --- |
| CCCN(C)CC(=O)Nc1ccc(/C=C2\Cc3ccc(OC)cc3C2=O)cc1 | UniProt:P22303 | 7.73 |

---

molecular target: AChE (Homo sapiens, UniProt P22303); assay: biochemical; settings: 10^–3 M
Sequence (P22303 32-614): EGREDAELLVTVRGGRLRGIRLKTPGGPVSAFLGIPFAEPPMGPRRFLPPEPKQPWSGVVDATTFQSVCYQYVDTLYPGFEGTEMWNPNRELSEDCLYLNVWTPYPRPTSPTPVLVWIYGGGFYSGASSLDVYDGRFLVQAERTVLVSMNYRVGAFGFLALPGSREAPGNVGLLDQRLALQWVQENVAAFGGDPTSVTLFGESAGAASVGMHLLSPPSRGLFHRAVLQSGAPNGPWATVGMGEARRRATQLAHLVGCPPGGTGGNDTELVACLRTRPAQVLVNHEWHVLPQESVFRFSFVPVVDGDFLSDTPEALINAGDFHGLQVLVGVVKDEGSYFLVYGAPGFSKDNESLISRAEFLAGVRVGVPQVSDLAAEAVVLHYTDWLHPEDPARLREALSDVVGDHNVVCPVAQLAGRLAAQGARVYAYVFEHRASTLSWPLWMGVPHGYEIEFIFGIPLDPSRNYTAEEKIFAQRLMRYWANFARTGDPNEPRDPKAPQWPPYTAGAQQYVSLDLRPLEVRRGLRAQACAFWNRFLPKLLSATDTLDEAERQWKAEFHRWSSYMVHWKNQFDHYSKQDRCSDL
Listing of recorded inhibition at 1000 µM by entry.
Reported Property: inhibition at 1000 µM (%)

| Compound | System | Measured Number |
| --- | --- | --- |
| COc1ccc2c(c1)C/C(=C\c1ccc(NC(=O)CN3CCN(C)CC3)cc1)C2=O [D1] | AChE (Homo sapiens, UniProt P22303) | 83.2 |
| COc1ccc2c(c1)C(=O)/C(=C/c1ccc(NC(=O)CN3CCN(CCO)CC3)cc1)C2 | AChE (Homo sapiens, UniProt P22303) | 73.7 |
| COc1ccc2c(c1)C/C(=C\c1ccc(NC(=O)CN3CCN(CCN(C)C)CC3)cc1)C2=O | AChE (Homo sapiens, UniProt P22303) | 91.9 |
| CCCN(C)CC(=O)Nc1ccc(/C=C2\Cc3cc(OC)c(OC)cc3C2=O)cc1 | AChE (Homo sapiens, UniProt P22303) | 98.2 |
| COCCN1CCN(CC(=O)Nc2ccc(/C=C3\Cc4cc(OC)c(OC)cc4C3=O)cc2)CC1 | AChE (Homo sapiens, UniProt P22303) | 91.6 |

---

Listing of recorded IC50 by entry.
Biological target: MAO-A (Homo sapiens)
Sequence (P21397 1-527): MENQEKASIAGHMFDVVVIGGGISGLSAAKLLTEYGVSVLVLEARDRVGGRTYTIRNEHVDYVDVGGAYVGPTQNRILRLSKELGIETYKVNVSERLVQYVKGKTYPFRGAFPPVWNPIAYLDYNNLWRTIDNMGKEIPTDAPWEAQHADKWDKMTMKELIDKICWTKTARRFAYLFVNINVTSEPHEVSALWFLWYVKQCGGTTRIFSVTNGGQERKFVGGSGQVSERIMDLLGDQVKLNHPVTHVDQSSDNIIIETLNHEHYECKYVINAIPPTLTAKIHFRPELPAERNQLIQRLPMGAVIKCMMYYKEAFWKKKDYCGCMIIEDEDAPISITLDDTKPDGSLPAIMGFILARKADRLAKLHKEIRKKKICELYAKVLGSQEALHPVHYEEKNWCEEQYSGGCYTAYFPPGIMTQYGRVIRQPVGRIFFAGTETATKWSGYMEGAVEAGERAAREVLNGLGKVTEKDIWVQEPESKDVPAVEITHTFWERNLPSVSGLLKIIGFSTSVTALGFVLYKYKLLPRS

| Smiles Str | IC50 |
| --- | --- |
| CCCN(C)CC(=O)Nc1ccc(/C=C2\Cc3cc(OC)ccc3C2=O)cc1 | 111 nM |
| CCCN(C)CC(=O)Nc1ccc(/C=C2\Cc3ccc(OC)cc3C2=O)cc1 | 112 nM |

---

target: MAO-B (Homo sapiens); experiment: In vitro MAO-B inhibition assay (fluorometric); assay type: biochemical; settings: 10^–4 M
Sequence (P27338 whole entry): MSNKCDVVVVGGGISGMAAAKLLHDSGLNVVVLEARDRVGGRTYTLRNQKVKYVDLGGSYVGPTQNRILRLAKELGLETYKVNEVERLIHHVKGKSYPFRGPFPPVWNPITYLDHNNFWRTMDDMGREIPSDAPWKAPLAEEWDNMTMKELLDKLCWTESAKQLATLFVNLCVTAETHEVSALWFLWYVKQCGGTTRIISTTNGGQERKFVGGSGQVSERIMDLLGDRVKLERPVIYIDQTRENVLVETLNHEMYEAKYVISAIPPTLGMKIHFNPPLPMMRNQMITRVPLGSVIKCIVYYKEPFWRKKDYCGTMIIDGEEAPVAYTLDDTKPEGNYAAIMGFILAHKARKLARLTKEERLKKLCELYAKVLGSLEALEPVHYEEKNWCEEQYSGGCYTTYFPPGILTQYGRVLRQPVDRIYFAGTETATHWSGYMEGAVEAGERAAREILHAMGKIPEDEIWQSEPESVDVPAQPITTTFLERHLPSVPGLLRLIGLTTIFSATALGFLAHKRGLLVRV

| Smiles Str | Endpoint Unit | inhibition at 100 µM |
| --- | --- | --- |
| COc1ccc2c(c1)C/C(=C\c1ccc(NC(=O)CN3CCN(CCCN(C)C)CC3)cc1)C2=O | % | 40.1 |
| COCCN1CCN(CC(=O)Nc2ccc(/C=C3\Cc4cc(OC)c(OC)cc4C3=O)cc2)CC1 | % | 40.1 |
| COc1cc2c(cc1OC)C(=O)/C(=C/c1ccc(NC(=O)CN3CCN(CCCN(C)C)CC3)cc1)C2 | % | 43.1 |
| COc1ccc2c(c1)C/C(=C\c1ccc(NC(=O)CN(C)CCCN(C)C)cc1)C2=O | % | 91.6 |
| COc1cc2c(cc1OC)C(=O)/C(=C/c1ccc(NC(=O)CN3CCN(CCCO)CC3)cc1)C2 | % | 46.2 |
| COc1cc2c(cc1OC)C(=O)/C(=C/c1ccc(NC(=O)CN(C)CCCN(C)C)cc1)C2 | % | 87.2 |
| C#CCN1CCN(CC(=O)Nc2ccc(/C=C3\Cc4cc(OC)c(OC)cc4C3=O)cc2)CC1 | % | 49 |
| CCN1CCN(CC(=O)Nc2ccc(/C=C3\Cc4cc(OC)ccc4C3=O)cc2)CC1 | % | 36.3 |
| C=CCN1CCN(CC(=O)Nc2ccc(/C=C3\Cc4cc(OC)ccc4C3=O)cc2)CC1 | % | 47.9 |
| CCN1CCN(CC(=O)Nc2ccc(/C=C3\Cc4cc(OC)c(OC)cc4C3=O)cc2)CC1 | % | 48.6 |
| COc1ccc2c(c1)C(=O)/C(=C/c1ccc(NC(=O)CN3CCN(CCN(C)C)CC3)cc1)C2 | % | 43.2 |
| C#CCN1CCN(CC(=O)Nc2ccc(/C=C3\Cc4ccc(OC)cc4C3=O)cc2)CC1 | % | 35.6 |
| COc1ccc2c(c1)C(=O)/C(=C/c1ccc(NC(=O)CN3CCN(CCO)CC3)cc1)C2 | % | 45.4 |
| CCN(CC)CCN(CC)CC(=O)Nc1ccc(/C=C2\Cc3cc(OC)c(OC)cc3C2=O)cc1 | % | 40.2 |
| COc1cc2c(cc1OC)C(=O)/C(=C/c1ccc(NC(=O)CN3CCN(C)CC3)cc1)C2 | % | 36.2 |
| C#CCN1CCN(CC(=O)Nc2ccc(/C=C3\Cc4cc(OC)ccc4C3=O)cc2)CC1 | % | 42.6 |
| C#CCN(C)CC(=O)Nc1ccc(/C=C2\Cc3ccc(OC)cc3C2=O)cc1 | % | 89.6 |
| CCCN(C)CC(=O)Nc1ccc(/C=C2\Cc3ccc(OC)cc3C2=O)cc1 | % | 87.6 |

---

molecular target: MAO-B (Homo sapiens); test: In vitro MAO-B inhibition assay (fluorometric); assay type: biochemical; details: 10^–5 M
Reported Property: inhibition at 10 µM (%)

| Compound | System | Reported Property | Measured Number |
| --- | --- | --- | --- |
| C#CCN(C)CC(=O)Nc1ccc(/C=C2\Cc3cc(OC)ccc3C2=O)cc1 [D31] | MAO-B (Homo sapiens) | inhibition at 10 µM | 81.5 |
| COc1ccc2c(c1)C/C(=C\c1ccc(NC(=O)CN(C)CCCN(C)C)cc1)C2=O [D37] | MAO-B (Homo sapiens) | inhibition at 10 µM | 85.5 |
| CCN(CC)CCN(CC)CC(=O)Nc1ccc(/C=C2\Cc3cc(OC)ccc3C2=O)cc1 [D40] | MAO-B (Homo sapiens) | inhibition at 10 µM | 80.6 |
| CCCN(C)CC(=O)Nc1ccc(/C=C2\Cc3ccc(OC)cc3C2=O)cc1 [D29] | MAO-B (Homo sapiens) | inhibition at 10 µM | 82.2 |
| COc1cc2c(cc1OC)C(=O)/C(=C/c1ccc(NC(=O)CN(C)CCCN(C)C)cc1)C2 [D39] | MAO-B (Homo sapiens) | inhibition at 10 µM | 84.8 |
| CCCN(C)CC(=O)Nc1ccc(/C=C2\Cc3cc(OC)c(OC)cc3C2=O)cc1 [D30] | MAO-B (Homo sapiens) | inhibition at 10 µM | 82.5 |
| CCCN(C)CC(=O)Nc1ccc(/C=C2\Cc3cc(OC)ccc3C2=O)cc1 [D28] | MAO-B (Homo sapiens) | inhibition at 10 µM | 80.5 |
| COc1ccc2c(c1)C(=O)/C(=C/c1ccc(NC(=O)CN(C)CCCN(C)C)cc1)C2 [D38] | MAO-B (Homo sapiens) | inhibition at 10 µM | 84.6 |
| CCN(CC)CCN(CC)CC(=O)Nc1ccc(/C=C2\Cc3ccc(OC)cc3C2=O)cc1 [D41] | MAO-B (Homo sapiens) | inhibition at 10 µM | 73.3 |
| C#CCN(C)CC(=O)Nc1ccc(/C=C2\Cc3ccc(OC)cc3C2=O)cc1 [D32] | MAO-B (Homo sapiens) | inhibition at 10 µM | 81.5 |

---

molecular target: AChE (Homo sapiens, UniProt P22303); assay: biochemical; settings: 10^–8 M
Listing of recorded inhibition at 0.01 µM by entry.
Reported Property: inhibition at 0.01 µM (%)

| Molecule | Reported Property | Measured Number |
| --- | --- | --- |
| COc1cc2c(cc1OC)C(=O)/C(=C/c1ccc(NC(=O)CN3CCN(CCCO)CC3)cc1)C2 [D21] | inhibition at 0.01 µM | 38.3 |
| COc1ccc2c(c1)C/C(=C\c1ccc(NC(=O)CN3CCN(CCCO)CC3)cc1)C2=O [D19] | inhibition at 0.01 µM | 33.6 |
| COc1ccc2c(c1)C(=O)/C(=C/c1ccc(NC(=O)CN(C)CCN(C)C)cc1)C2 [D35] | inhibition at 0.01 µM | 33.6 |
| CCCN(C)CC(=O)Nc1ccc(/C=C2\Cc3cc(OC)c(OC)cc3C2=O)cc1 [D30] | inhibition at 0.01 µM | 36.6 |
| CCCN(C)CC(=O)Nc1ccc(/C=C2\Cc3ccc(OC)cc3C2=O)cc1 [D29] | inhibition at 0.01 µM | 34.3 |
